Target: T1, PARP4 BRCT F39A (human, UniProt Q9UKK3 1-100, F39A)
T1 sequence: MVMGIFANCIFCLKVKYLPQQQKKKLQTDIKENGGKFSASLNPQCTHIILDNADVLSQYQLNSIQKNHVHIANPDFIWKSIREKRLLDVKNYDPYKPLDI
Assay: FP; 3 nM probe; FP: 50 mM Tris pH 7.5, 50 mM NaCl, 1 mM MgCl2, 0.05% NP40, 2 mM DTT, 5% glycerol, 25 ug/ml BSA, room temp 30 min; EMSA: 50 mM Tris pH 7.5, 50 mM NaCl, 4% Ficoll PM400, 0.05% NP40, 2 mM DTT, 0-18 uM protein, room temp 30 min, gel at 4 C
Details: protein: recombinant; tags: N-terminal His-SUMO removed by TEV; label: 5'-6-FAM; predicted intramolecular fold
measured.endpoint: Kd (µM)

[[record]]
binder = "vtRNA1-3 (structured_RNA) RNA: GGCUGGCUUUAGCUCAGCGGUUACUUCGCGUGUCAUCAAACCACCUCUCUGGGUUGUUCGAGACCCGCGGGCGCUCUCCAGCCCUCUU"
result = 33

